Biological target: recombinant BIR3 domain of cIAP1 with N-terminal 6xHis tag (Artificial Sequence)
Sequence (chain, as listed by the source limits assumed): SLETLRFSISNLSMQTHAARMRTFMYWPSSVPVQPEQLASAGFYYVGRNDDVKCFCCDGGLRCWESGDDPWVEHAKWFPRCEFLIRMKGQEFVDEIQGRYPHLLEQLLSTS
Assay: DELFIA displacement of AVPI-Biotin
quantity: IC50 (nM)
Quick reminder: number only, in nM, skip the unit.

Using known records, supply IC50 for AVPF
50.9
